experiment: Inhibition of recombinant Escherichia coli DNA gyrase expressed in Escherichia coli assessed as reduction in enzyme-mediated supercoiling of relaxed circular DNA preincubated with enzyme followed by substrate addition measured after 30 mins by agarose gel electrophoresis method
Give pIC50 for every item shown.
Give bare numbers, as −log10 of the molar value.

1. O=C(O)c1cn2c3c(c(F)c(F)cc3c1=O)Oc1cc([N+](=O)[O-])c(Cl)cc1-2; 4.20
2. Nc1ccc2c(c1)Oc1c(N3CCC(N4CCCCC4)CC3)c(F)cc3c(=O)c(C(=O)O)cn-2c13; 4.81
3. N[C@H]1CCN(c2c(F)cc3c(=O)c(C(=O)O)cn4c3c2Oc2cc([N+](=O)[O-])ccc2-4)C1; 5.41

Below: the item to evaluate.
# return recorded pIC50 for input `Nc1ccc2c(c1)Oc1c(N3CCOCC3)c(F)cc3c(=O)c(C(=O)O)cn-2c13` 5.11
